- measuredOn: BuChE (Homo sapiens)
- Sequence (P06276 29-602): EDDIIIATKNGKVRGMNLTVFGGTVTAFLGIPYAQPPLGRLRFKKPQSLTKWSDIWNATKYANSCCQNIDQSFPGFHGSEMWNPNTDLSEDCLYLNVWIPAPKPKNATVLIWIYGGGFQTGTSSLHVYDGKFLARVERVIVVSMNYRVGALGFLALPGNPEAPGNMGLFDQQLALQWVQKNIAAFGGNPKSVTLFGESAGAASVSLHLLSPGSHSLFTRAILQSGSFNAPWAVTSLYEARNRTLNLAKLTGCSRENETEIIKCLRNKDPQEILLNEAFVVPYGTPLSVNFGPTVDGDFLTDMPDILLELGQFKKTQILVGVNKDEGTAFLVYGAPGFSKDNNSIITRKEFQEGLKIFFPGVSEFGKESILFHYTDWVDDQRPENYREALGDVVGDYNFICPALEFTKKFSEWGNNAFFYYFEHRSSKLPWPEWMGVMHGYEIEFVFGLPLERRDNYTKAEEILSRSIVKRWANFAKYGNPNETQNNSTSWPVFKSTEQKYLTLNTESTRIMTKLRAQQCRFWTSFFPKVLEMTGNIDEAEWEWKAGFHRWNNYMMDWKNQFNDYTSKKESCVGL
- assayOverview: In vitro screening assay, BuChE inhibition
- Format: biochemical
- measurementContext: 10 μM
Could you label it criterion met if measured BuChEI (%) 10 μM is 30% or higher, and criterion not met otherwise?

Take a look at these entries with their results.
compound	measuredOn	classification
C[C@@H](Cc1ccccc1)NC(=O)Oc1cccc([C@H](C)N(C)C)c1 [Compound 20, S-riva-d-amphetamine]	BuChE (Homo sapiens)	criterion not met
C[C@@H](c1cccc(OC(=O)N2CCN(C3=Nc4ccccc4Oc4ccc(Cl)cc43)CC2)c1)N(C)C [Compound 3, S-riva-amoxapine]	BuChE (Homo sapiens)	criterion not met
C[C@@H](c1cccc(OC(=O)N(C)CCCN2c3ccccc3CCc3ccccc32)c1)N(C)C [Compound 4, S-riva-desipramine]	BuChE (Homo sapiens)	criterion met

Decide: is the reported value of BuChEI (%) 10 μM for C[C@@H](c1cccc(OC(=O)N2CC[C@@H](c3ccc(F)cc3)[C@H](COc3ccc4c(c3)OCO4)C2)c1)N(C)C [Compound 9A, S-riva-paroxetine] equal to or greater than 30%?
criterion not met

Hi, just wondering whether C[C@@H](c1cccc(OC(=O)N(C)CC[C@H](Oc2cccc3ccccc23)c2cccs2)c1)N(C)C [Compound 10, S-riva-duloxetine] shows BuChEI (%) 10 μM of 30% or higher.
criterion met

Check this compound for BuChEI (%) 10 μM at or above 30%: C#CCN(C(=O)Oc1ccc2c(c1)[C@]1(C)CCN(C)[C@@H]1N2C)[C@H](C)Cc1ccccc1 [Compound 18, Physo-desmethylselegiline]
criterion not met

Given the entry C[C@@H](Cc1ccccc1)NC(=O)Oc1ccc2c(c1)[C@]1(C)CCN(C)[C@@H]1N2C [Compound 14, Physo-d-amphetamine] , answer whether its BuChEI (%) 10 μM meets or surpasses 30%.
criterion not met

Evaluate Cc1ccccc1O[C@H](CCN(C)C(=O)Oc1cccc([C@H](C)N(C)C)c1)c1ccccc1 [Compound 5, S-riva-atomoxetine] : BuChEI (%) 10 μM at minimum 30%?
criterion not met

Textbook exercise: given the entry C[C@@H](c1cccc(OC(=O)N(C)CCC(Oc2ccc(C(F)(F)F)cc2)c2ccccc2)c1)N(C)C (stereo partly drawn) [Compound 7A, S-riva-fluoxetine] , state whether its BuChEI (%) 10 μM is greater than or equal to 30%.
criterion not met

Quick check, BuChEI (%) 10 μM >= 30%? C#CCN(C(=O)Oc1cccc([C@@H](C)N(C)C)c1)[C@H](C)Cc1ccccc1 [Compound 17, R-riva-desmethylselegiline]
criterion not met

Record C[C@@H](c1cccc(OC(=O)N[C@H]2C[C@@H]2c2ccccc2)c1)N(C)C (stereo in doubt) [Compound 2, S-riva-tranylcypromine] ; criterion: BuChEI (%) 10 μM no lower than 30%. Met?
criterion met

Please indicate if the recorded BuChEI (%) 10 μM for C[C@@H](c1cccc(OC(=O)N(C)CCC=C2c3ccccc3CCc3ccccc32)c1)N(C)C [Compound 5A, S-riva-nortriptyline] meets or exceeds 30%.
criterion met
